target: Integrin alpha-IIb/beta-3 (Homo sapiens, UniProt P05106+P08514); assay: Displacement of [125I]L-692884 from purified Fibrinogen Receptor activated by coating onto yttrium silicate; format: protein-complex assay
Reported log10 of ED50 values follow for various molecules
Units before log transform: nM; reported quantity: ED50; transform: log10.

Looking for the measured log10 of ED50 of CCCCS(=O)(=O)N[C@@H](CNC(=O)c1cc2n(n1)CCN(CCC1CCNCC1)C2=O)C(=O)O , can you help?
-0.92

Looking for the measured log10 of ED50 of Cc1ccc(S(=O)(=O)N[C@@H](CNC(=O)c2cc3n(n2)CCCN(CCC2CCNCC2)C3=O)C(=O)O)cc1 , can you help?
-1.10

Looking for the measured log10 of ED50 of C[C@H](CC(=O)O)NC(=O)CN1CCC[C@@H](CCC2CCNCC2)C1=O , can you help?
0.70

Looking for the measured log10 of ED50 of O=C(O)CCNC(=O)c1cc2n(n1)CCCN(CCC1CCNCC1)C2=O , can you help?
1.66

Looking for the measured log10 of ED50 of CCCCS(=O)(=O)N[C@@H](CNC(=O)c1cc2n(n1)CCCN(CCC1CCNCC1)C2=O)C(=O)O , can you help?
-0.92

Looking for the measured log10 of ED50 of O=C(O)CCNC(=O)c1cc2n(n1)CCN(CCC1CCNCC1)C2=O , can you help?
1.86

* * *

Reported Kd values follow for various molecules
target: Integrin alpha-IIb/beta-3 (Homo sapiens, UniProt P05106+P08514); assay: Displacement of L-736,622 from purified resting Fibrinogen Receptor
Sequence (P05106 27-788 limits assumed): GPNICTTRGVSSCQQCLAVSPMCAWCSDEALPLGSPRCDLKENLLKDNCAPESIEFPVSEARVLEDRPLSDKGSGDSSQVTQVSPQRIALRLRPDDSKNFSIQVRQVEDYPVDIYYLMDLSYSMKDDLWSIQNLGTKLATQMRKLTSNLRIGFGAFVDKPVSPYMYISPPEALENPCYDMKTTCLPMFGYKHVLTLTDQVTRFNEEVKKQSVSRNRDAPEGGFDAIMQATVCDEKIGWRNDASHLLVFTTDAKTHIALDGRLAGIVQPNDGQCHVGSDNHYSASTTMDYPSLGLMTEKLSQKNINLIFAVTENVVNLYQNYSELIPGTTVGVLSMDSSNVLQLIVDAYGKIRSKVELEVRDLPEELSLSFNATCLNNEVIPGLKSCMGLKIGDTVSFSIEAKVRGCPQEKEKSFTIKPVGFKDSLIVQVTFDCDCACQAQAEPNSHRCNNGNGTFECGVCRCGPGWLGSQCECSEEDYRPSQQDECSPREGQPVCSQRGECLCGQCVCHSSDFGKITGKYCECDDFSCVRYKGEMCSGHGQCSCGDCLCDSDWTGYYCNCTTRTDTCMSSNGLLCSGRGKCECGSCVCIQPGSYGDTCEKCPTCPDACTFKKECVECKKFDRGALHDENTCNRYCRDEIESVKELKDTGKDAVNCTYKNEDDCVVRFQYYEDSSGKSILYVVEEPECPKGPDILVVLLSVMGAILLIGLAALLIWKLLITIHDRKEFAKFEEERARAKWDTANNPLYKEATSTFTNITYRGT
Sequence (P08514 32-887 limits assumed): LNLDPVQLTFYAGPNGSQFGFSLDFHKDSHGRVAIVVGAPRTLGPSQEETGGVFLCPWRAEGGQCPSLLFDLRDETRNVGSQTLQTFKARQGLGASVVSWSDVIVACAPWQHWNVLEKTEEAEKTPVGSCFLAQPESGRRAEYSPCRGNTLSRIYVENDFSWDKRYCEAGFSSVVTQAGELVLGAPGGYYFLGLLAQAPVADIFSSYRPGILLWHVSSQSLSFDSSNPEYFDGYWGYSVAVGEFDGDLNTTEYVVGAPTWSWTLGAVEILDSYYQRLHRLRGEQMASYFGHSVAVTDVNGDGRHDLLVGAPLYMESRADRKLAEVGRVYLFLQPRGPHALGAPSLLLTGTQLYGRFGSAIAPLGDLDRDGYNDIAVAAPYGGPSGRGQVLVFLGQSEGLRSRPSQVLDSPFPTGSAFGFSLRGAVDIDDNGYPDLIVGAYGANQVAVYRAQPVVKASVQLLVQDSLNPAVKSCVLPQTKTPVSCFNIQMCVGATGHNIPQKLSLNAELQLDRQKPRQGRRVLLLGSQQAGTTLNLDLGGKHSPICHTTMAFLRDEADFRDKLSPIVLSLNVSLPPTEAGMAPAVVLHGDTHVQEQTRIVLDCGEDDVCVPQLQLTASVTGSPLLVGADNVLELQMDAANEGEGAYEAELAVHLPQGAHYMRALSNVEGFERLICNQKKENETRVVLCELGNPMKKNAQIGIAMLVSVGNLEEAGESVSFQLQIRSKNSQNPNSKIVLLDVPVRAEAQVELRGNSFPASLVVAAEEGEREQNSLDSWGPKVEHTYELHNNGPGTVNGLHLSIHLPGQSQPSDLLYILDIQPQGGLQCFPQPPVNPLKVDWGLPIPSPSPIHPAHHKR
Sequence (P08514 891-1039 limits assumed): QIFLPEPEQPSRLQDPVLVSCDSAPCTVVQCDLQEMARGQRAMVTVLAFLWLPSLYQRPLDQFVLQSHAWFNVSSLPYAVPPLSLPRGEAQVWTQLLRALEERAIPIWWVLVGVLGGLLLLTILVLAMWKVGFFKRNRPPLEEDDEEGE
Kindly answer with a numeric value in nM, unit omitted.

1) Cc1ccc(S(=O)(=O)N[C@@H](CNC(=O)c2cc3n(n2)CCCN(CCC2CCNCC2)C3=O)C(=O)O)cc1 ... 1.1
2) CCCCS(=O)(=O)N[C@@H](CNC(=O)c1cc2n(n1)CCN(CCC1CCNCC1)C2=O)C(=O)O ... 1.8
3) O=C(O)CCNC(=O)c1cc2n(n1)CCN(CCC1CCNCC1)C2=O ... 590
4) O=C(O)CCNC(=O)c1cc2n(n1)CCCN(CCC1CCNCC1)C2=O ... 680
5) C[C@H](CC(=O)O)NC(=O)CN1CCC[C@@H](CCC2CCNCC2)C1=O ... 600

Alright, here's another molecule for you.
Looking for the measured Kd of CCCCS(=O)(=O)N[C@@H](CNC(=O)c1cc2n(n1)CCCN(CCC1CCNCC1)C2=O)C(=O)O , can you help?
1.4

* * *

biological target: Integrin alpha-5/beta-1 (Homo sapiens, UniProt P05556+P08648); assay: Inhibition of human umbilical vein endothelial cells (HUVEC) attachment to fibronectin
Sequence (P05556 21-798 limits assumed): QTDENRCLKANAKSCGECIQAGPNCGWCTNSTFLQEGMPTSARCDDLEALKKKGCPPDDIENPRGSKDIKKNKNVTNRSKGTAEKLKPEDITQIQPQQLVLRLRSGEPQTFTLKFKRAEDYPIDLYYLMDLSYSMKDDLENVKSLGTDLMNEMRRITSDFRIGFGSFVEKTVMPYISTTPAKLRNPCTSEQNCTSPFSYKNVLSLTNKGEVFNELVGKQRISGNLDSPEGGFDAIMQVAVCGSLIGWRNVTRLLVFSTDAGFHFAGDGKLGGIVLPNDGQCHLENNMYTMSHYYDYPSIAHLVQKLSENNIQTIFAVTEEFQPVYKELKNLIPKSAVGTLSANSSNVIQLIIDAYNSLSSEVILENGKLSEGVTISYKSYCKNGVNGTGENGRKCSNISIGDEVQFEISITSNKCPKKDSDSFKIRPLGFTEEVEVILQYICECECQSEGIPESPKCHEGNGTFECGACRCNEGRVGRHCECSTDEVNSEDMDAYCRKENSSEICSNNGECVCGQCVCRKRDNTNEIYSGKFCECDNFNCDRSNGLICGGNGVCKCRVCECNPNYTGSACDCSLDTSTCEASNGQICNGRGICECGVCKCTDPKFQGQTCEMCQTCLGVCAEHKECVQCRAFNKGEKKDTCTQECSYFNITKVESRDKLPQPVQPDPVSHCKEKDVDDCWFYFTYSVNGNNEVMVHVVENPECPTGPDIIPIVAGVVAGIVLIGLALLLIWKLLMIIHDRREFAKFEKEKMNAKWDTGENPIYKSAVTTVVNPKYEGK
Sequence (P08648 42-894 limits assumed): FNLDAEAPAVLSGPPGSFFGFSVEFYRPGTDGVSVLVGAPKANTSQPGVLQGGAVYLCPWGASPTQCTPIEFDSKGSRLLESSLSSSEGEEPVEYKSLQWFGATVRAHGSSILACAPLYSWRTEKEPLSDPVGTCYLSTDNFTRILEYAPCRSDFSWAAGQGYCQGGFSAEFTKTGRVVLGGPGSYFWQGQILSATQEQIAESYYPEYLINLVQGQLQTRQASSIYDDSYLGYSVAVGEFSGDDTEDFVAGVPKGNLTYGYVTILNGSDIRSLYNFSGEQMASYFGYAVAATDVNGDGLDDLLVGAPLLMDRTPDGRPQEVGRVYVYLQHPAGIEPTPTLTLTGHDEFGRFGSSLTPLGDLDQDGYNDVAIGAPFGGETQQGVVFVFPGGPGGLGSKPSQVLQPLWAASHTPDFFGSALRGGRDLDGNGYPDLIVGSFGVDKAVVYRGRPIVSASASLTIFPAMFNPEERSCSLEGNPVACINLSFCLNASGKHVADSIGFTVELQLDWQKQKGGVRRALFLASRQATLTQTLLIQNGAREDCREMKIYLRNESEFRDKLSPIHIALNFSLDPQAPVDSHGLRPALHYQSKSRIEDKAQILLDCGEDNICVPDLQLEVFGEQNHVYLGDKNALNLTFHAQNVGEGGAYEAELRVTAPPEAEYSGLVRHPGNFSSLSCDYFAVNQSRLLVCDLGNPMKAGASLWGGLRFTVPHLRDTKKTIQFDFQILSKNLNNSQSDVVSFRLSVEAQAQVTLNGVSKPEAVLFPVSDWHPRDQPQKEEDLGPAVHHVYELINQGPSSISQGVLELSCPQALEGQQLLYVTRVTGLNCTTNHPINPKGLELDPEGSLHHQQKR
Sequence (P08648 895-1049 limits assumed): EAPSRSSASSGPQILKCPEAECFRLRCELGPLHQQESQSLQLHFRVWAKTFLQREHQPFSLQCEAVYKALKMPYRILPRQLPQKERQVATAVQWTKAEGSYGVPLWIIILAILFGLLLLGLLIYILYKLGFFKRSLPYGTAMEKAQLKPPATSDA
quantity-name: IC50

Looking for the measured IC50 of Cc1ccc(S(=O)(=O)N[C@@H](CNC(=O)c2cc3n(n2)CCCN(CCC2CCNCC2)C3=O)C(=O)O)cc1 , can you help?
> 300 µM

* * *

biological target: Integrin alpha-IIb/beta-3 (Homo sapiens, UniProt P05106+P08514); assay: Inhibition of human umbilical vein endothelial cells (HUVEC) attachment to fibrinogen (FG)
quantity-name: IC50

Requested read-out IC50, target or system Integrin alpha-IIb/beta-3 (Homo sapiens, UniProt P05106+P08514), entry Cc1ccc(S(=O)(=O)N[C@@H](CNC(=O)c2cc3n(n2)CCCN(CCC2CCNCC2)C3=O)C(=O)O)cc1
> 300 µM
